# Test System: Bile acid receptor (Homo sapiens)
# Method Description: qHTS assay for small molecule antagonists of farnesoid X receptor signaling (AID 588526)
# Measurement Context: HEK293T FXR-UAS-bla, beta-lactamase ratio, antagonist mode; series mostly up to 76.7 µM
Results filed as inconclusive are left out. Calls of active or inactive are those of the source. The call rests on the fitted dose curve.
Outcomes: 1 (active), -1 (inactive)

Cc1ccc(S(N)(=O)=O)cc1 ... -1
O=C(O)c1ccc([N+](=O)[O-])cc1 ... -1
CCCCCCCCOc1ccc(C(=O)O)cc1 ... -1
Oc1c(Cl)cc(Cl)c(Cl)c1Cl ... -1
CCCCCCCC/C=C\CCCCCCCC(=O)N(CCO)CCO ... -1
c1ccc(SCCSc2ccccc2)cc1 ... -1
OCC(CO)(CBr)CBr ... -1
Cc1ccc(O)c(N)c1 ... -1
O=C1OC(=O)c2ccccc21 ... -1
c1ccc2c(c1)ccc1ccccc12 ... -1
C=CC(=O)CC ... -1
CN(C)c1ccc(Cc2ccc(N(C)C)cc2)cc1 ... -1
Cc1cc2nc(N)sc2cc1C ... -1
CCCCC(CC)COCCCN (configuration not stated) ... -1
N=C1C=CC(=C(c2ccc(N)cc2)c2ccc(N)cc2)C=C1 ... -1
Cc1c(C(=O)O)c(O)cc2c1C(=O)c1c(O)c([C@H]3O[C@H](CO)[C@@H](O)[C@H](O)[C@H]3O)c(O)c(O)c1C2=O ... -1
Cc1c(N)cccc1Cl ... -1
N[C@@H](Cc1ccccc1)C(=O)O ... -1
CC(=O)OC1CC(C)OC(C)O1 (configuration not stated) ... -1
CC(/C=C/C=C(C)/C=C/C(=O)O)=C\C=C\C=C(C)\C=C\C=C(C)\C=C\C(=O)O ... -1
COc1ccc([N+](=O)[O-])cc1N ... -1
Nc1cnn([C@@H]2O[C@H](CO)[C@@H](O)[C@H]2O)c(=O)n1 ... 1
CCCCOC(=O)COc1ccc(Cl)cc1Cl ... -1
c1ccc(COCc2ccccc2)cc1 ... -1
CC(=O)OCc1ccc2c(c1)OCO2 ... -1
CC(CCC(=O)O)(c1ccc(O)cc1)c1ccc(O)cc1 ... -1
C[Si](C)(C)Cl ... -1

---

# Method Description: qHTS assay for small molecule agonists of the antioxidant response element (ARE) signaling pathway (AID 651741); on activation: % of control where 0% means no effect
# Measurement Context: HepG2 ARE-bla reporter, beta-lactamase FRET ratio, 16 h; series mostly up to 96 µM
Records with an inconclusive call do not appear. Active and inactive are the calls of the source. The call rests on the fitted dose curve; in most records, active means well fitted activation curve with a large enough effect in the signal ratio; inconclusive means small, poorly fitted or top-dose-only effect, or effect the other way, or a change in a side signal; inactive means flat fitted curve, though single readings scatter; the % refers to the signal ratio.
Outcomes: Yes (active), No (inactive)

O=C(OCC1CO1)C1CCCCC1C(=O)OCC1CO1 (stereo not given) ... Yes
O=[N+]([O-])c1cc(N(CCO)CCO)ccc1NCCO ... No
CC(C)COC(=O)COc1cc(Cl)c(Cl)cc1Cl ... Yes
Oc1c(Cl)cc(Cl)c(Cl)c1Cl ... Yes
O=[N+]([O-])c1cc(Cl)c(Cl)c(Cl)c1Cl ... Yes
OCC(CO)(CBr)CBr ... No
O=C1c2ccccc2C(=O)C1(O)O ... Yes
c1ccc(COCc2ccccc2)cc1 ... No
O=C=Nc1ccc(Cl)c(Cl)c1 ... Yes
NC(=O)Nc1nc2ccccc2[nH]1 ... No
c1ccc2ncccc2c1 ... No
COc1cc(-c2ccc(N=C=O)c(OC)c2)ccc1N=C=O ... Yes
CC(=O)Nc1cccc(C)c1 ... No
CCNC(=S)NCC ... No
Nc1ccc(N)c(Cl)c1 ... Yes

---

# Method Description: AP1 Signaling Pathway (AID 357);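 further: ME-180 reporter cells stimulated with EGF at its EC50 level; on the % scale 0 is the no-effect control and ±100 the full control effect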
# Measurement Context: ME-180 (cervical carcinoma) AP-1-bla reporter, EGF-induced, beta-lactamase ratio, 5 h; at 7.69 µM (top of the series) unless noted
# Experimental: NCGC Assay Overview: Activator protein-1 (AP-1), a transcription factor, plays an important role in tumor genesis by regulating genes involved in cell proliferation, differentiation, apoptosis, and angiogenesis. AP-1 activity is induced by a complex network of signaling pathways that involves extracellular signals, such as growth factors. […] Library compounds were measured for their ability to modulate positively or negatively the action of EC50 EGF on reporter gene activity. […]
Results filed as inconclusive are left out. The source made the active and inactive calls. The call rests on the fitted dose curve; in most records, active means well fitted curve in either direction with a large enough effect (not every such curve was filed as active); inconclusive means small, poorly fitted or top-dose-only effect, or another doubt; inactive means flat fitted curve, though single readings scatter.
Measurement Type: activity change, negative = inhibition

NCc1ccc(C(=O)O)cc1 ... 3.17% (inactive)
Nc1ncnc2c1ncn2CCCCC(=O)O ... 10.7% (inactive)
O=c1[nH]c(=S)[nH]c2c1CN(CCCN1CCOCC1)CN2 ... 3.35% (inactive)
N=C(N)SCc1nc(-c2ccc(Cl)cc2)no1 ... 26% (inactive)
O=C(O)c1cccc(C(=O)O)c1S(=O)Cc1ccccc1 (stereo not drawn) ... 5.26% (inactive)
NC(N)=N[C@H](CCC(=O)O)C(=O)O ... -11% [at 38 µM] (inactive)
C[C@H](CCC(=O)O)[C@H]1CC[C@]2(C)[C@@H]3C(=O)C[C@H]4C(C)(C)[C@@H](O)CC[C@]4(C)[C@H]3C(=O)C[C@@]12C ... 4.2% (inactive)
O=C(O)c1ccc(Oc2nc3ccccc3s2)cc1 ... -5.86% (inactive)
N[C@@H](Cc1nn[nH]n1)C(=O)O ... -0.568% (inactive)
Fc1cccc(CSc2ncnc3c2ncn3[C@H]2CCCS2)c1 ... -5.08% (inactive)
CNc1ncnc2c1ncn2[C@@H]1O[C@@H](CO)[C@H](O)[C@@H]1O ... -19.9% [at 38 µM] (inactive)
CN(C)CCCSc1nc2ccccc2[nH]1 ... -0.00775% (inactive)
ON(CCc1ccncc1)Cc1ccccc1 ... -5.59% (inactive)
O=C(O)CCC(=O)Nc1ccc2ccccc2c1 ... -0.421% (inactive)
O=[N+]([O-])c1ccccc1N=Nc1c(O)[nH]c2ccc(S(=O)(=O)O)cc12 ... -1.77% (inactive)
CC[C@H](CN(C)C)C(=O)c1ccco1 ... 3.81% (inactive)
Oc1cccnc1CN1CCCCC1 ... -3.72% (inactive)
Cc1cc2cc3c(=O)[nH]c(=O)[nH]c3nc2cc1C ... -6.37% (inactive)
O=C(O)CCNc1ncnc2nc[nH]c12 ... 8.82% (inactive)
CC(C)/C(=N/[N+](C)(C)C)c1ccccc1 ... 3.83% (inactive)
CN(C)CCCc1c2ccccc2nc2ccc(Cl)cc12 ... 14.2% (inactive)
CC(C)CNc1nc2ncnc(N)c2[nH]1 ... 5.51% (inactive)
CC[C@H](C)[C@@H]1O[C@]2(CC[C@@H]1C)C[C@H]1C[C@H](CC=C(C)[C@@H](O[C@H]3C[C@H](OC)[C@H](O[C@H]4C[C@H](OC)[C@H](O)[C@H](C)O4)[C@H](C)O3)[C@@H](C)C=CC=C3CO[C@@H]4[C@@H](O)C(C)=C[C@H](C(=O)O1)[C@@]34O)O2 ... -14% [at 38 µM] (inactive)

---

# Method Description: Cellular Toxicity (caspase-3) Jurkat (AID 655);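 further: cells exposed to compound for 16 h at 37 °C before reading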
# Measurement Context: Jurkat caspase-3 activation, luminescence
Records with an inconclusive call do not appear. Active and inactive are the calls of the source. Calls come from the whole dose curve; as a rule, active = well fitted activation curve with a large enough effect; inconclusive = small, poorly fitted or top-dose-only effect; inactive = flat fitted curve, though single readings scatter.
Outcomes: 1.0 for active, 0.0 for inactive

c1ccc2ncccc2c1 ... 0.0
Cc1ccc(C(=O)O)cc1[N+](=O)[O-] ... 0.0
CCCCCCc1ccc(-c2ccc(C#N)cc2)cc1 ... 0.0
Cc1ccc(O)c(N)c1 ... 0.0
Cc1cc2nc(N)sc2cc1C ... 0.0
Cc1cccnc1 ... 0.0
Oc1cc(Cl)cc(Cl)c1Cl ... 0.0
CCOc1ccc2nc(N)sc2c1 ... 0.0
O=C(OCc1ccccc1)c1ccccc1O ... 0.0
O=c1[nH]ncc2ccccc12 ... 0.0
CCOC(=O)C1OC1c1ccccc1 (centres undefined) ... 0.0
O=[N+]([O-])c1cc(N(CCO)CCO)ccc1NCCO ... 0.0
NC(=O)c1ccc([N+](=O)[O-])cc1 ... 0.0
CC(C)OCC1CO1 (centres undefined) ... 0.0
CC(=O)Nc1cccc(C)c1 ... 0.0
CCNC(=S)NCC ... 0.0
CC(C)S ... 0.0
c1cc2c3c(c1)ccc1cccc(c13)C2 ... 0.0
Cc1cc(-c2ccc(N=Nc3cc(S(=O)(=O)O)c4ccccc4c3N)c(C)c2)ccc1N=Nc1cc(S(=O)(=O)O)c2ccccc2c1N ... 0.0
CCCCNCC ... 0.0
c1ccncc1 ... 0.0
C=CC(=O)CC ... 0.0
Oc1ccc2c(c1)OCO2 ... 0.0
CCCCC(CC)COCCCN (centres undefined) ... 0.0
CC(/C=C/C=C(C)/C=C/C(=O)O)=C\C=C\C=C(C)\C=C\C=C(C)\C=C\C(=O)O ... 0.0
O=CC(=O)c1ccccc1 ... 0.0
CCc1ccc(C(c2ccc(CC)cc2)C(Cl)Cl)cc1 ... 0.0
CC(=O)c1ccc(Cl)c(Cl)c1Cl ... 0.0
COc1ccc(C(=O)Nc2ccccc2)cc1[N+](=O)[O-] ... 0.0
Nc1ccccc1O ... 1.0
CN(C)c1ccc(Cc2ccc(N(C)C)cc2)cc1 ... 0.0
OCC(CBr)(CBr)CBr ... 0.0
O=C(O)/C=C/c1ccc(/C=C/C(=O)O)cc1 ... 0.0
Cc1ccccc1OCC1CO1 (centres undefined) ... 0.0
Cc1ccc2ccc3cccc4ccc1c2c34 ... 0.0
COc1ccc([N+](=O)[O-])cc1N ... 0.0
CC(=O)OC1CC(C)OC(C)O1 (centres undefined) ... 0.0
c1ccc(COCc2ccccc2)cc1 ... 0.0
Brc1cc(Br)c(Oc2cc(Br)c(Br)cc2Br)cc1Br ... 0.0
Nc1cc(C(=O)O)c(O)c(S(=O)(=O)O)c1 ... 0.0
O=C(O)c1cc(N=Nc2ccc([N+](=O)[O-])cc2)ccc1O ... 0.0
O=[N+]([O-])c1ccccc1Nc1ccccc1 ... 0.0
c1ccc(Nc2cccc3ccccc23)cc1 ... 0.0
CCN(CC)c1ccc(N)cc1 ... 0.0
